# assay_system: T1, CD3 expressed on cell-surface of primary human T cells (human, UniProt P07766 23-207; P04234 22-171)
# T1 construct: also called cell-surface CD3; human CD3
# T1 sequence (P07766 23-207 limits assumed, chain 1 of 2): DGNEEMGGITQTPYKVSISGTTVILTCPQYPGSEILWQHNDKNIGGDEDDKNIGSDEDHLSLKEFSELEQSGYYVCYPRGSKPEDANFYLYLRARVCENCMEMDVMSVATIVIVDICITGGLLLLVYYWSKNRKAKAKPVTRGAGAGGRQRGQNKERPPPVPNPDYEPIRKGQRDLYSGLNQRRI
# T1 sequence (P04234 22-171 limits assumed, chain 2 of 2): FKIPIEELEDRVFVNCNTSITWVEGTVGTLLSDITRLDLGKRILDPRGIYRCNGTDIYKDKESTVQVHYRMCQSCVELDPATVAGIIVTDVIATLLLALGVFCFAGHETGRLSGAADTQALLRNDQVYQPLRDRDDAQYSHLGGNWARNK
# test_method_notes: flow cytometry competition vs murine SP34-AF488 on human T cells, n = 2
metric: IC50 (µg/mL)
Form entry: value (µg/mL) — number only.

Use these answered entries as a reference point.
huSP34.13.8 Fab-HF (Fab, V domains shown) VH: EVQLVESGGGLVQPGGSLRLSCAASGFTFSTYAMNWVRQAPGKGLEWVGRIRSKYNNYATYYAASVKGRFTISRDDSKNTLYLQMNSLRTEDTAVYYCVRHGNFGHSYVSWFAYWGQGTLVTVSS VL: QAVVTQEPSLTVSPGGTVTLTCGSSTGAVTTGHYANWVQQKPGQAPRGLIGGTNKRAPGVPARFSGSLLGGKAALTISGAQPEDEAEYYCALWYSNRWVFGGGTKLTVL
0.14
huSP34.12.10 Fab-HF (Fab, V domains shown) VH: EVQLVESGGGLVQPGGSLRLSCAASGFTFSTYAMNWVRQAPGKGLEWVARIRSKYNNYATYYAASVKGRFTISRDDSKNSLYLQMNSLRTEDTAVYYCVRHGNFGHSYVSWFAYWGQGTLVTVSS VL: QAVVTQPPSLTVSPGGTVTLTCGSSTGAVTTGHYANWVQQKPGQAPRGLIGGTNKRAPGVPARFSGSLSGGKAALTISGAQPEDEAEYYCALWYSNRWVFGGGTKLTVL
0.33

For the next question, use this binder.
q: State its IC50: huSP34.13.7 Fab-HF (Fab, V domains shown) VH: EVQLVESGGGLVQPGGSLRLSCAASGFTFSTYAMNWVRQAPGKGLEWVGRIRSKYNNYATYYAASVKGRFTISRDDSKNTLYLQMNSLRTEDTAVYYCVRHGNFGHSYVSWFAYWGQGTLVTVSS VL: QAVVTQEPSLTVSPGGTVTLTCRSSTGAVTTGHYANWVQQKPGQAPRGLIGGTNKRAPGVPARFSGSLLGGKAALTISGAQPEDEAEYYCALWYSNLWVFGGGTKLTVL
a: 0.18

Values were extracted from patent US20230056252A1.
